The following compounds have recorded MIC on C. albicans ATCC 90028.

compound | result-type | observed-value
COc1c(Br)cc(/C=C/C(=O)NCCCNCCCCNCCCNC(=O)/C=C/c2cc(Br)c(OC)c(Br)c2)cc1Br.O=C(O)C(F)(F)F.O=C(O)C(F)(F)F [Compound 16a] | MIC | 30 µM
O=C(C=Cc1ccccc1)NCCCNCCCCCCCNCCCNC(=O)C=Cc1ccccc1.O=C(O)C(F)(F)F.O=C(O)C(F)(F)F [Compound 13c] | MIC | > 43.7 µM

Continue with the next compound.
Sample COc1ccc(/C=C/C(=O)NCCCNCCCCCCCCCCCCNCCCNC(=O)/C=C/c2ccc(OC)cc2)cc1.O=C(O)C(F)(F)F.O=C(O)C(F)(F)F [Compound 14f] ; MIC observed: > 37.1 µM

----------
Test system: E. coli ATCC 25922
protocol-notes: Erythromycin enhancement against E. coli
Assay type: cell-based, Escherichia coli
measurement-conditions: erythromycin fixed at 10.9 µM (8 µg/mL)
Task for the reader: assign each of the following molecules its reported Eryth/E. c: concentration required to restore erythromycin activity.
Numbers only, in µM.

In the examples that follow, each entry is paired with its recorded Eryth/E. c: concentration required to restore erythromycin activity.
molecule | observed-value
O=C(C=Cc1ccccc1)NCCCNCCCCCCCCCCNCCCNC(=O)C=Cc1ccccc1.O=C(O)C(F)(F)F.O=C(O)C(F)(F)F [Compound 13e] | 64.5
COc1c(Br)cc(/C=C/C(=O)NCCCNCCCCNCCCNC(=O)/C=C/c2cc(Br)c(OC)c(Br)c2)cc1Br.O=C(O)C(F)(F)F.O=C(O)C(F)(F)F [Compound 16a] | 11.7
O=C(C=Cc1ccccc1)NCCCNCCCCCCCCNCCCNC(=O)C=Cc1ccccc1.O=C(O)C(F)(F)F.O=C(O)C(F)(F)F [Compound 13d] | 25
COc1ccc(/C=C/C(=O)NCCCNCCCCNCCCNC(=O)/C=C/c2ccc(OC)cc2)cc1.O=C(O)C(F)(F)F.O=C(O)C(F)(F)F [Compound 14a] | 67

Working through the 6 molecules below one at a time, give Eryth/E. c: concentration required to restore erythromycin activity for each.
1. COc1ccc(/C=C/C(=O)NCCCNCCCCCCCNCCCNC(=O)/C=C/c2ccc(OC)cc2)cc1.O=C(O)C(F)(F)F.O=C(O)C(F)(F)F [Compound 14c]
2. COc1c(Br)cc(/C=C/C(=O)NCCCNCCCCCCCNCCCNC(=O)/C=C/c2cc(Br)c(OC)c(Br)c2)cc1Br.O=C(O)C(F)(F)F.O=C(O)C(F)(F)F [Compound 16c]
3. COc1c(Br)cc(/C=C/C(=O)NCCCNCCCCCCNCCCNC(=O)/C=C/c2cc(Br)c(OC)c(Br)c2)cc1Br.O=C(O)C(F)(F)F.O=C(O)C(F)(F)F [Compound 16b]
4. COc1c(Br)cc(/C=C/C(=O)NCCCNCCCCCCCCCCCCNCCCNC(=O)/C=C/c2cc(Br)c(OC)c(Br)c2)cc1Br.O=C(O)C(F)(F)F.O=C(O)C(F)(F)F [Compound 16f]
5. COc1ccc(/C=C/C(=O)NCCCNCCCCCCNCCCNC(=O)/C=C/c2ccc(OC)cc2)cc1.O=C(O)C(F)(F)F.O=C(O)C(F)(F)F [Compound 14b]
6. COc1ccc(/C=C/C(=O)NCCCNCCCCCCCCCCCCNCCCNC(=O)/C=C/c2ccc(OC)c(Br)c2)cc1Br.O=C(O)C(F)(F)F.O=C(O)C(F)(F)F [Compound 15f]

126
22.6
11.4
5.30
256
6.1

Working through the 8 molecules below one at a time, give Eryth/E. c: concentration required to restore erythromycin activity for each.
1. COc1ccc(/C=C/C(=O)NCCCNCCCCCCCCNCCCNC(=O)/C=C/c2ccc(OC)c(Br)c2)cc1Br.O=C(O)C(F)(F)F.O=C(O)C(F)(F)F [Compound 15d]
2. COc1ccc(/C=C/C(=O)NCCCNCCCCCCCNCCCNC(=O)/C=C/c2ccc(OC)c(Br)c2)cc1Br.O=C(O)C(F)(F)F.O=C(O)C(F)(F)F [Compound 15c]
3. O=C(C=Cc1ccccc1)NCCCNCCCCCCNCCCNC(=O)C=Cc1ccccc1.O=C(O)C(F)(F)F.O=C(O)C(F)(F)F [Compound 13b]
4. COc1ccc(/C=C/C(=O)NCCCNCCCCCCCCCCCCNCCCNC(=O)/C=C/c2ccc(OC)cc2)cc1.O=C(O)C(F)(F)F.O=C(O)C(F)(F)F [Compound 14f]
5. COc1ccc(/C=C/C(=O)NCCCNCCCCCCCCNCCCNC(=O)/C=C/c2ccc(OC)cc2)cc1.O=C(O)C(F)(F)F.O=C(O)C(F)(F)F [Compound 14d]
6. O=C(C=Cc1ccccc1)NCCCNCCCCCCCCCCCCNCCCNC(=O)C=Cc1ccccc1.O=C(O)C(F)(F)F.O=C(O)C(F)(F)F [Compound 13f]
7. O=C(C=Cc1ccccc1)NCCCNCCCCCCCNCCCNC(=O)C=Cc1ccccc1.O=C(O)C(F)(F)F.O=C(O)C(F)(F)F [Compound 13c]
8. COc1c(Br)cc(/C=C/C(=O)NCCCNCCCCCCCCNCCCNC(=O)/C=C/c2cc(Br)c(OC)c(Br)c2)cc1Br.O=C(O)C(F)(F)F.O=C(O)C(F)(F)F [Compound 16d]

25.9
13.1
25
3.62
62
3.125
136
22.3

Working through the 3 molecules below one at a time, give Eryth/E. c: concentration required to restore erythromycin activity for each.
1. O=C(C=Cc1ccccc1)NCCCNCCCCNCCCNC(=O)C=Cc1ccccc1.O=C(O)C(F)(F)F.O=C(O)C(F)(F)F [Compound 13a]
2. COc1ccc(/C=C/C(=O)NCCCNCCCCCCNCCCNC(=O)/C=C/c2ccc(OC)c(Br)c2)cc1Br.O=C(O)C(F)(F)F.O=C(O)C(F)(F)F [Compound 15b]
3. COc1ccc(/C=C/C(=O)NCCCNCCCCNCCCNC(=O)/C=C/c2ccc(OC)c(Br)c2)cc1Br.O=C(O)C(F)(F)F.O=C(O)C(F)(F)F [Compound 15a]

[145, 26.7, 13.7]

----------
The following molecules have recorded MIC on C. albicans ATCC 90028.

molecule | experimental-target | observed-value
COc1c(Br)cc(/C=C/C(=O)NCCCNCCCCCCCCCCNCCCNC(=O)/C=C/c2cc(Br)c(OC)c(Br)c2)cc1Br.O=C(O)C(F)(F)F.O=C(O)C(F)(F)F [Compound 16e] | C. albicans ATCC 90028 | 27.8 µM

Working through the 3 molecules below one at a time, give MIC for each.
1. COc1c(Br)cc(/C=C/C(=O)NCCCNCCCCCCCNCCCNC(=O)/C=C/c2cc(Br)c(OC)c(Br)c2)cc1Br.O=C(O)C(F)(F)F.O=C(O)C(F)(F)F [Compound 16c]
2. O=C(C=Cc1ccccc1)NCCCNCCCCNCCCNC(=O)C=Cc1ccccc1.O=C(O)C(F)(F)F.O=C(O)C(F)(F)F [Compound 13a]
3. O=C(C=Cc1ccccc1)NCCCNCCCCCCCCCCNCCCNC(=O)C=Cc1ccccc1.O=C(O)C(F)(F)F.O=C(O)C(F)(F)F [Compound 13e]

["> 28.9 µM", "> 46.3 µM", "> 41.3 µM"]

----------
Task for the reader: assign each of the following compounds its reported MIC.
Tested on: MRSA ATCC 43300
protocol-notes: Antimicrobial MIC, MRSA (CO-ADD)
Format: cell-based, methicillin-resistant S. aureus
measurement-conditions: Staphylococcus aureus; MRSA ATCC 43300; mean (n = 2); read-out: MIC MRSA
Method: The susceptibility of bacterial strains S. aureus (ATCC 25923), E. coli (ATCC 25922) and P. aeruginosa (ATCC 27853) to antibiotics and compounds was determined using protocols reported previously. […]

In the examples that follow, each entry is paired with its recorded MIC.
compound | experimental-target | MIC
O=C(C=Cc1ccccc1)NCCCNCCCCCCCCNCCCNC(=O)C=Cc1ccccc1.O=C(O)C(F)(F)F.O=C(O)C(F)(F)F [Compound 13d] | MRSA ATCC 43300 | 42.8 µM
O=C(C=Cc1ccccc1)NCCCNCCCCCCCCCCNCCCNC(=O)C=Cc1ccccc1.O=C(O)C(F)(F)F.O=C(O)C(F)(F)F [Compound 13e] | MRSA ATCC 43300 | 20.6 µM
COc1c(Br)cc(/C=C/C(=O)NCCCNCCCCCCCCCCCCNCCCNC(=O)/C=C/c2cc(Br)c(OC)c(Br)c2)cc1Br.O=C(O)C(F)(F)F.O=C(O)C(F)(F)F [Compound 16f] | MRSA ATCC 43300 | ≤ 0.21 µM

Working through the 5 compounds below one at a time, give MIC for each.
1. COc1c(Br)cc(/C=C/C(=O)NCCCNCCCCNCCCNC(=O)/C=C/c2cc(Br)c(OC)c(Br)c2)cc1Br.O=C(O)C(F)(F)F.O=C(O)C(F)(F)F [Compound 16a]
2. COc1ccc(/C=C/C(=O)NCCCNCCCCCCCNCCCNC(=O)/C=C/c2ccc(OC)cc2)cc1.O=C(O)C(F)(F)F.O=C(O)C(F)(F)F [Compound 14c]
3. COc1c(Br)cc(/C=C/C(=O)NCCCNCCCCCCCCNCCCNC(=O)/C=C/c2cc(Br)c(OC)c(Br)c2)cc1Br.O=C(O)C(F)(F)F.O=C(O)C(F)(F)F [Compound 16d]
4. COc1ccc(/C=C/C(=O)NCCCNCCCCNCCCNC(=O)/C=C/c2ccc(OC)cc2)cc1.O=C(O)C(F)(F)F.O=C(O)C(F)(F)F [Compound 14a]
5. COc1ccc(/C=C/C(=O)NCCCNCCCCCCCCCCCCNCCCNC(=O)/C=C/c2ccc(OC)cc2)cc1.O=C(O)C(F)(F)F.O=C(O)C(F)(F)F [Compound 14f]

["≤ 0.23 µM", "20.2 µM", "≤ 0.22 µM", "> 42.6 µM", "≤ 0.29 µM"]
